Target: human urokinase-type plasminogen activator (UPA-LMW, from human urine, 33 kDa) (human, UniProt P00749 156-431)
Assay: enzyme inhibition of human uPA, residual activity
Endpoint Label: pKi
Reminder that pKi is minus the log10 of a molar concentration.

Entry H-ASSRYEVDSRGRGSASG-NH2 (Not conjugated to TBMB; M = 1740.0 Da; also called UK18ser) ; pKi = 5.24

Data provenance: patent EP2420255A2
